Reported EC50 values follow for various molecules
target: UniProtKB O94907; assay: Inhibition of Dkk1-mediated Wnt/beta-catenin signaling in osteosarcoma cells assessed as potentiation of TCF-luciferase response
Sequence (O94907 whole entry): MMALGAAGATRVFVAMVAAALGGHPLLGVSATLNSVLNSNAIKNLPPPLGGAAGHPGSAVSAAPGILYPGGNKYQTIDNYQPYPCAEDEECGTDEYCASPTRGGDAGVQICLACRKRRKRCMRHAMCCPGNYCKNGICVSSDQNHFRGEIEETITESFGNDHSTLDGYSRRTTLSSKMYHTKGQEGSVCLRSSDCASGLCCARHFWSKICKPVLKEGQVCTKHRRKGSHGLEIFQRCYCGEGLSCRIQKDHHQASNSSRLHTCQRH
Numbers only; they are read as nM.

Answered examples (2):
NC1CCN(c2nccc(-c3ccc4ccccc4c3)n2)CC1 = 1000
Cc1ccc(-c2ccnc(N(C)c3ccc(S(N)(=O)=O)cc3)n2)s1 = 9800

// query Query: EC50; subject: CC(=O)NCC1CCN(c2nccc(-c3ccc4ccccc4c3)n2)CC1
// result 1900

// query Query: EC50; subject: Cc1ccc(-c2ccnc(Nc3ccc(S(N)(=O)=O)cc3)n2)s1
// result 7800

// query Query: EC50; subject: NS(=O)(=O)c1ccc(Nc2nccc(-c3ccc4ccccc4c3)n2)cc1
// result 1000

// query Query: EC50; subject: NCC1CCN(c2nccc(-c3ccc4ccccc4c3)n2)CC1
// result 630
